- targetOrSystem: DRB1*0802 (Homo sapiens, UniProt P01903+P01911, A100R/A103L/A169T/F76Y/H45Y/I96F/K41T/L162R/M171V/P40S/Q125H/Q178H/Q39Y/Q99D/R218S/R42G/S66Y/V115G/W38E)
- experiment: biochemical
- Type: binding
pIC50: −log10 of the molar value.
measuredEndpoint: pIC50

compound | measuredEndpoint | measuredValue
CC[C@H](C)[C@H](NC(=O)[C@H](C)NC(=O)[C@H](CCCCN)NC(=O)[C@@H](N)Cc1c[nH]cn1)C(=O)N[C@@H](CCC(=O)O)C(=O)N[C@@H](CC(C)C)C(=O)N[C@@H](CCC(N)=O)C(=O)N[C@@H](CCSC)C(=O)N[C@@H](C)C(=O)N[C@@H](CC(C)C)C(=O)N[C@@H](CCC(N)=O)C(=O)NCC(=O)N[C@@H](CC(C)C)C(=O)N[C@@H](C)C(=O)N[C@@H](CCC(N)=O)C(=O)O [Peptide 89.0160] | pIC50 | < 4.70

Consider the record given below.
Entry CC[C@H](C)[C@H](NC(=O)CNC(=O)[C@@H](NC(=O)[C@H](CCCCN)NC(=O)[C@H](Cc1ccc(O)cc1)NC(=O)[C@H](Cc1c[nH]c2ccccc12)NC(=O)[C@H](Cc1ccc(O)cc1)NC(=O)[C@@H](N)CC(C)C)[C@@H](C)O)C(=O)N[C@@H](CO)C(=O)N[C@@H](CC(N)=O)C(=O)N[C@H](C(=O)N[C@@H](CO)C(=O)N[C@@H](CCC(=O)O)C(=O)N[C@H](C(=O)N[C@@H](Cc1ccc(O)cc1)C(=O)O)C(C)C)[C@@H](C)CC [Peptide 89.0009] : reported pIC50 = ? 5.84
